Source of measurements: paper PMC9203275

Target: LBP-3 (Caenorhabditis elegans)
Sequence (Q20222 16-165): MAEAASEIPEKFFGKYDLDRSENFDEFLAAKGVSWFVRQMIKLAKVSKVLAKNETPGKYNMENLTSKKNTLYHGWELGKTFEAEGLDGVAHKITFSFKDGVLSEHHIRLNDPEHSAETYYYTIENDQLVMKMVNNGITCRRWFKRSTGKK
Test: competitive fluorescence displacement of […],8-ANS
Conditions: one-site Fit Ki; competition with 1,8-ANS probe
endpoint_name: pKd
To interpret pKd, take it as minus log10 of a concentration measured in moles per litre.

Request: Field request: pKd | item: CCCCC/C=C\C/C=C\C/C=C\CCCCCCC(=O)O [DGLA, dihomo-γ-linolenic acid]
Result: 4.96

Request: Field request: pKd | item: CC/C=C\C/C=C\C/C=C\C/C=C\C/C=C\CCCC(=O)O [EPA, eicosapentaenoic acid]
Result: 5.32
